Recorded abundance fitness values for a group of variants are listed next.
B1: POU domain, class 3, transcription factor 3, residues 408 to 463; numbered along this chain, P20264 (parent)
chain: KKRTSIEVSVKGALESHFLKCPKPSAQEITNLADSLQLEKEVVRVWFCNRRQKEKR

# Variants of: B1
# assay-overview: abundance fitness (aPCA) (normalised: wild type 0, dead -1); higher = more abundant; growth selection in yeast, the domain comes from the species named
# setup-conditions: Homo sapiens

# change, abundance fitness
rows = [
    ("K23N", 0.248),
    ("R3C", -0.415),
    ("R3F", -0.119),
    ("A13W", -0.344),
    ("K40H", -0.136),
    ("A13Y", -0.17),
    ("E41H", -0.196),
    ("Q52M", -0.194),
    ("A26Y", -0.087),
    ("C48S", 0.045),
    ("S9H", 0.092),
    ("Q27F", -0.27),
    ("A13M", -0.096),
    ("K11N", -0.27),
    ("K1M", -0.333),
    ("S9E", 0.072),
    ("C21V", -0.249),
    ("K1R", -0.263),
    ("Q37L", -0.188),
    ("L14P", -1),
    ("V10T", -0.023),
    ("S5C", 0.128),
    ("T30F", -0.082),
    ("K2T", -0.008),
    ("R56A", -0.046),
    ("S16G", -0.059),
    ("Q27R", -0.055),
    ("K20N", -0.109),
    ("V8R", 0.001),
    ("S9L", -0.206),
    ("Q52K", -0.112),
    ("I29N", -0.982),
    ("I29F", -0.832),
    ("S25E", -0.287),
]
